- study_system: Kappa-type opioid receptor (Rattus norvegicus, UniProt P34975)
- Sequence (P34975 whole entry): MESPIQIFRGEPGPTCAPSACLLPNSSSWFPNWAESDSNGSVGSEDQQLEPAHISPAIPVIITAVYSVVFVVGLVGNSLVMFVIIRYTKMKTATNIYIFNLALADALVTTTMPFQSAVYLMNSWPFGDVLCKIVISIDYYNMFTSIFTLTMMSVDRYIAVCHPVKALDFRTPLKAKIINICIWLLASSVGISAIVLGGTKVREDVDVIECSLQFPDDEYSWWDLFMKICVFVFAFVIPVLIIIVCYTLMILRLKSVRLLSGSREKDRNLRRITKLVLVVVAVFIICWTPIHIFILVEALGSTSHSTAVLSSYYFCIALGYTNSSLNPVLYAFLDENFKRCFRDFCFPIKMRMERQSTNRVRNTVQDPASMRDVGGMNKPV
- protocol_text: biochemical
- Type: cell-based, HEK293
- Description: Inhibition of [3H]U-69593 binding to rat opioid receptor kappa 1 expressed in HEK 293 cells
property: Ki (µM)

• COC(=O)[C@@H]1C[C@H](OC=O)C(=O)[C@H]2[C@@]1(C)CC[C@H]1C(=O)O[C@H](c3ccoc3)C[C@]21C = 0.018
• COC(=O)[C@@H]1C[C@H](OC(C)=O)C(=O)[C@H]2[C@@]1(C)CC[C@H]1C(O)O[C@H](c3ccoc3)C[C@]21C (stereo not given in full) = 0.059
• COC(=O)[C@@H]1C[C@H](OC(C)=O)C[C@H]2[C@@]1(C)CC[C@H]1C(=O)O[C@H](c3ccoc3)C[C@]21C = 0.018
• COC(=O)C1=C[C@H](OC(C)=O)[C@H](OC(C)=O)[C@@H]2[C@@]3(C)C[C@@H](c4ccoc4)OC(=O)[C@@H]3CC[C@@]12C = 1.02
